So I've got a bunch of molecules here, and I need their IC50 values.
Molecular target: recombinant GSK3β enzyme (human GSK3β) (Homo sapiens, UniProt P49841)
Construct: FLAG (N)
Sequence (P49841 whole entry): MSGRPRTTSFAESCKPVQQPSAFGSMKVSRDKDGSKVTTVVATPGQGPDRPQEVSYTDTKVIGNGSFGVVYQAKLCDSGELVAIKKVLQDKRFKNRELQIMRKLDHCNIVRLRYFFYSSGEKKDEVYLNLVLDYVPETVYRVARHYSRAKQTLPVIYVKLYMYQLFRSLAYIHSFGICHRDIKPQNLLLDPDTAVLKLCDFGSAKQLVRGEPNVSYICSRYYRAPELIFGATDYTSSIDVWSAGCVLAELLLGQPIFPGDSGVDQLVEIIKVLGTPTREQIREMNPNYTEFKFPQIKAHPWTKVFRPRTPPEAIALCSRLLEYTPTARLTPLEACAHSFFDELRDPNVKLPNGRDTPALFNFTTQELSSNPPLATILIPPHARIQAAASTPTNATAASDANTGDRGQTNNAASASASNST
Assay: Measurement of GSK3β inhibitory activity
Conditions: glycogen synthase peptide substrate, Kinase Glo luminescence, read-out: IC50 (concentration of test compound needed for 50% inhibition of luminescent intensity), GSK3β inhibitory activity

>>> df
                                   molecule  readout_value
0  O=C(Cc1c[nH]c2ccccc12)Nc1c[nH]nc1C(=O)NCCc1ccccc1 [Example 130]         128 nM

List reported IC50 for each of these molecules:
1. O=C(Nc1c[nH]nc1C(=O)Nc1ccccc1)c1cnccn1 [compound 098]
2. CC(C)OCCNC(=O)c1n[nH]cc1NC(=O)c1ccccc1 [Example 424]
3. O=C(NC1CCCC1)c1n[nH]cc1NC(=O)C1CCCCC1 [compound 063]
4. COc1ccc(C(=O)Nc2c[nH]nc2C(=O)NCc2ccccc2)cc1 [Example 112]
5. CNC(=O)c1n[nH]cc1NC(=O)c1ccccn1 [Example 346]
6. O=C(CC1CCCC1)Nc1c[nH]nc1C(=O)NCCc1ccccc1 [Example 121]
7. CC(C)OCCCNC(=O)c1n[nH]cc1NC(=O)c1ccccn1 [Example 353]
8. O=C(Cc1ccc(-c2ccccc2)cc1)Nc1c[nH]nc1C(=O)NC1CCCC1 [compound 065]

Reply:
1: < 100 nM; 2: < 100 nM; 3: < 100 nM; 4: < 100 nM; 5: < 100 nM; 6: < 100 nM; 7: < 100 nM; 8: 234 nM

###

Molecular target: recombinant GSK3β enzyme (human GSK3β) (Homo sapiens, UniProt P49841)
Construct: FLAG (N)
Assay: Measurement of GSK3β inhibitory activity
Conditions: glycogen synthase peptide substrate, Kinase Glo luminescence, read-out: IC50 (concentration of test compound needed for 50% inhibition of luminescent intensity), GSK3β inhibitory activity
So I've got a bunch of molecules here, and I need their IC50 values.

Some molecules with known IC50 results, for comparison:
>>> df
                                   molecule                               target_desc  readout_value
0  CC(=O)Nc1cccc(C(=O)Nc2c[nH]nc2C(=O)NCCc2ccccc2)c1  recombinant GSK3β enzyme (human GSK3β) (Homo sapiens, UniProt P49841)       < 100 nM
1  CC(=O)Nc1cccc(C(=O)Nc2c[nH]nc2C(=O)NCCOC(C)(C)C)c1  recombinant GSK3β enzyme (human GSK3β) (Homo sapiens, UniProt P49841)         140 nM
2  Cc1cccc(C(=O)Nc2c[nH]nc2C(=O)NCCOc2ccc(F)cc2)n1  recombinant GSK3β enzyme (human GSK3β) (Homo sapiens, UniProt P49841)       < 100 nM
3  O=C(Nc1c[nH]nc1C(=O)NC1CCCC1)c1cccc2c1OCC2  recombinant GSK3β enzyme (human GSK3β) (Homo sapiens, UniProt P49841)       < 100 nM
4  O=C(Nc1c[nH]nc1C(=O)NC1CCc2ccccc21)c1ccccn1 (stereo not drawn)  recombinant GSK3β enzyme (human GSK3β) (Homo sapiens, UniProt P49841)         300 nM
5       CC(C)(C)C(=O)Nc1c[nH]nc1C(=O)NCCC#N  recombinant GSK3β enzyme (human GSK3β) (Homo sapiens, UniProt P49841)       < 100 nM
6  Cc1cccc(C(=O)Nc2c[nH]nc2C(=O)NCC(F)(F)F)n1  recombinant GSK3β enzyme (human GSK3β) (Homo sapiens, UniProt P49841)       < 100 nM
7  O=C(COc1ccccc1)Nc1c[nH]nc1C(=O)NCc1ccccc1  recombinant GSK3β enzyme (human GSK3β) (Homo sapiens, UniProt P49841)       < 100 nM
8  O=C(Nc1c[nH]nc1C(=O)NCc1ccccc1)c1ccc(OC(F)(F)F)cc1  recombinant GSK3β enzyme (human GSK3β) (Homo sapiens, UniProt P49841)         157 nM
9  CCCN(CCC)S(=O)(=O)c1ccc(C(=O)Nc2c[nH]nc2C(=O)NC2CCCC2)cc1  recombinant GSK3β enzyme (human GSK3β) (Homo sapiens, UniProt P49841)         299 nM

List reported IC50 for each of these molecules:
1. O=C(Nc1c[nH]nc1C(=O)Nc1ccccc1)c1ccccn1
2. CC1(C)C2CC[C@@]1(CS(=O)(=O)Nc1c[nH]nc1C(=O)NC1CCCC1)C(=O)C2
3. O=C(/C=C/c1ccccc1)Nc1c[nH]nc1C(=O)NCc1ccco1

Reply:
["< 100 nM", "208 nM", "388 nM"]

List reported IC50 for each of these molecules:
1. O=C(Nc1ccccc1)c1n[nH]cc1NC(=O)c1c[nH]c2ccccc12
2. CC(C)NC(=O)c1n[nH]cc1NC(=O)C1CCCCC1
3. CC(C)NC(=O)c1n[nH]cc1NC(=O)c1ccc(OC(F)(F)F)cc1
4. O=C(Nc1c[nH]nc1C(=O)NCCc1ccccc1)c1ccc(Oc2ccccc2)cc1
5. COc1ccccc1CC(=O)Nc1c[nH]nc1C(=O)NC1CCCC1

Reply:
1. < 100 nM
2. < 100 nM
3. < 100 nM
4. < 100 nM
5. < 100 nM
